Assay: Toxicity liver stage against HepG2, at 10uM
Type: cell-based
Parameters: test concentration 10 uM, cell line HepG2-A16-CD81EGFP
Conditions: human, HepG2-A16-CD81EGFP cells; read-out: INHIBITION
measure-name: cytotoxicity at 10 µM (%)
One number for each entry, in %.

Illustrative cases are given below, each with its answer.
Cc1nc(C)c(C(=O)N2CCN(CCOc3ccccc3C)CC2)o1	1.72
CNC(=O)COc1ccc(CNCc2ccc(F)cc2F)cc1	-8.6

Query molecule follows.
Task: Quick one: cytotoxicity at 10 µM for CC1CN(C(=O)Nc2cc(C(F)(F)F)c[nH]c2=O)CC(C)(C)O1 (stereo not drawn) ?
Output: 8.96
